Numbers sourced from the Deep4Chem optical property database.

assay-remarks: solvent given as SMILES
settings: in CCOC(C)=O
Record form. Attribute: absorption maximum. Fill in for each entry.
Give bare numbers, in nm.

CC1=[N+]2C(=C(c3ccc(C=O)cc3)c3ccc(C)n3[B-]2(F)F)C=C1c1cc2n(c1)[B-](F)(F)[N+]1=CC=CC1=C2c1c(C)cc(C)cc1C: 604.5

Batch: absorption maximum for all items listed.
1. CC(C)(C)c1ccc(-c2nc3c4ccc(-c5cc6ccccc6c6ccccc56)cc4c4cc(-c5cc6ccccc6c6ccccc56)ccc4c3n2-c2ccc(C(C)(C)C)cc2)cc1
2. O=c1oc2ccc(Br)cc2cc1-c1cc2cc(Br)ccc2o1

Result ::
1: 324; 2: 371
